For each record, write down the corresponding CL (h).
Test: Human microsomal stability assay
Assay type: in vitro ADME
Conditions: human liver microsomes 0.5 mg/mL, 37° C., pH 7.4, NADPH regenerating system, 0-30 minutes
Hi! Could you send only the number? It should be in mL/min/kg, unit omitted.

The compound C[C@@H]1CN(c2ccc(C#N)c3ncccc23)C[C@@H]2c3ccc(N[C@H]4CNC[C@H]4F)cc3CN12 showed CL (h) equal to 8.8

The compound C[C@@H]1CN(c2ccc(C#N)c3ncccc23)C[C@@H]2c3ccc(N4C[C@@H](N)[C@](C)(O)C4)cc3CN12 [Example 45] showed CL (h) equal to 6.2

The compound C[C@@H]1CN(c2ccc(C#N)c3ncccc23)C[C@@H]2c3ccc(N4C[C@@H](N)[C@H](O)C4)cc3CN12 (single isomer, unassigned) [Example 40B] showed CL (h) equal to 7.6

The compound C[C@@H]1CN(c2ccc(C#N)c3ncccc23)C[C@@H]2c3ccc(N[C@@H]4CCCNC4)cc3CN12 showed CL (h) equal to 6.2

The compound C[C@@H]1CN(c2ccc(C#N)c3ncccc23)C[C@@H]2c3ccc(N4CC(C)(N)C4)cc3CN12 showed CL (h) equal to 6.2

The compound C[C@@H]1CN(c2ccc(C#N)c3ncccc23)C[C@@H]2c3ccc(N4CCOC[C@H](N)C4)cc3CN12 [Example 54A] showed CL (h) equal to 7.5

The compound C[C@@H]1CN(c2ccc(C#N)c3ncccc23)C[C@@H]2c3ccc(N4CCN[C@H](CO)C4)cc3CN12 showed CL (h) equal to 6.2

----------
Molecular target: human TLR9 (Homo sapiens)
Sequence (Q9NR96 26-1032): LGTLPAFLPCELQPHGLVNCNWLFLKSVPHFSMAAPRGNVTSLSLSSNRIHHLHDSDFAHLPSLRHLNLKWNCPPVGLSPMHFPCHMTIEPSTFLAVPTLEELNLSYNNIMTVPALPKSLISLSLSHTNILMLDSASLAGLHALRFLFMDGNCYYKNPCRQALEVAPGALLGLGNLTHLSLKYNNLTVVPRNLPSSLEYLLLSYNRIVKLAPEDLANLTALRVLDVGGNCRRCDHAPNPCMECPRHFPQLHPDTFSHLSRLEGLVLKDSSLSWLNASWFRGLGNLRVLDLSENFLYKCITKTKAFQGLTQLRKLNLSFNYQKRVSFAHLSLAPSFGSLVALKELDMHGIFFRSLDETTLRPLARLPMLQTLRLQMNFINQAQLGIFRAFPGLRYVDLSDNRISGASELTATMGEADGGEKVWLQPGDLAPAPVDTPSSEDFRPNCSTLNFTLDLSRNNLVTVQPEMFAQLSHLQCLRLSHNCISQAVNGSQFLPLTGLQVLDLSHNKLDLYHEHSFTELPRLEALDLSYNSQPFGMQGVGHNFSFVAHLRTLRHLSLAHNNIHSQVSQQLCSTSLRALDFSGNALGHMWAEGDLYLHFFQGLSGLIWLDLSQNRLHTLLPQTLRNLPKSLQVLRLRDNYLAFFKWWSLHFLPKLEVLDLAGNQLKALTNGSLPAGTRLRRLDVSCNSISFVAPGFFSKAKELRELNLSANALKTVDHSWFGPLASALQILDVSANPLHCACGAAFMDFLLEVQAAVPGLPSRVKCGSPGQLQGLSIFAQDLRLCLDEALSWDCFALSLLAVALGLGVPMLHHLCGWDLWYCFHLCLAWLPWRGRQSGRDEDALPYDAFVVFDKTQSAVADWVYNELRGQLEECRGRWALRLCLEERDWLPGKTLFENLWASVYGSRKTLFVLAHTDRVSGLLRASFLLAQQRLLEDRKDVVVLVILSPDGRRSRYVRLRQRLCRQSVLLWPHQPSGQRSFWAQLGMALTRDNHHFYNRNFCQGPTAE
Test: HEK293-Blue-hTLR-9 cells assay
Settings: HEK293-Blue-hTLR9 cells, ODN2006 stimulation, 20 hrs, SEAP reporter; read-out: HEK/hTLR9 IC50
For each record, write down the corresponding IC50.

The molecule C[C@@H]1CN(c2ccc(C#N)c3ncccc23)C[C@@H]2c3ccc(N4C[C@H](N)[C@@H](O)C4)cc3CN12 [Example 40A] showed IC50 equal to 0.0595 µM

The molecule C[C@@H]1CN(c2ccc(C#N)c3ncccc23)C[C@@H]2c3ccc(NC[C@@H]4CNCCO4)cc3CN12 [Example 58] showed IC50 equal to 0.0843 µM

The molecule CO[C@@H]1CNC[C@@H]1Nc1ccc2c(c1)CN1[C@H](C)CN(c3ccc(C#N)c4ncccc34)C[C@H]21 [Example 60] showed IC50 equal to 0.113 µM

The molecule C[C@@H]1CN(c2ccc(C#N)c3ncccc23)C[C@@H]2c3ccc(N4CCNCC(C)(O)C4)cc3CN12 (stereo partly shown) [Example 55] showed IC50 equal to 0.118 µM

----------
Molecular target: human TLR8 (Homo sapiens, UniProt Q9NR97)
Sequence (Q9NR97 27-1041): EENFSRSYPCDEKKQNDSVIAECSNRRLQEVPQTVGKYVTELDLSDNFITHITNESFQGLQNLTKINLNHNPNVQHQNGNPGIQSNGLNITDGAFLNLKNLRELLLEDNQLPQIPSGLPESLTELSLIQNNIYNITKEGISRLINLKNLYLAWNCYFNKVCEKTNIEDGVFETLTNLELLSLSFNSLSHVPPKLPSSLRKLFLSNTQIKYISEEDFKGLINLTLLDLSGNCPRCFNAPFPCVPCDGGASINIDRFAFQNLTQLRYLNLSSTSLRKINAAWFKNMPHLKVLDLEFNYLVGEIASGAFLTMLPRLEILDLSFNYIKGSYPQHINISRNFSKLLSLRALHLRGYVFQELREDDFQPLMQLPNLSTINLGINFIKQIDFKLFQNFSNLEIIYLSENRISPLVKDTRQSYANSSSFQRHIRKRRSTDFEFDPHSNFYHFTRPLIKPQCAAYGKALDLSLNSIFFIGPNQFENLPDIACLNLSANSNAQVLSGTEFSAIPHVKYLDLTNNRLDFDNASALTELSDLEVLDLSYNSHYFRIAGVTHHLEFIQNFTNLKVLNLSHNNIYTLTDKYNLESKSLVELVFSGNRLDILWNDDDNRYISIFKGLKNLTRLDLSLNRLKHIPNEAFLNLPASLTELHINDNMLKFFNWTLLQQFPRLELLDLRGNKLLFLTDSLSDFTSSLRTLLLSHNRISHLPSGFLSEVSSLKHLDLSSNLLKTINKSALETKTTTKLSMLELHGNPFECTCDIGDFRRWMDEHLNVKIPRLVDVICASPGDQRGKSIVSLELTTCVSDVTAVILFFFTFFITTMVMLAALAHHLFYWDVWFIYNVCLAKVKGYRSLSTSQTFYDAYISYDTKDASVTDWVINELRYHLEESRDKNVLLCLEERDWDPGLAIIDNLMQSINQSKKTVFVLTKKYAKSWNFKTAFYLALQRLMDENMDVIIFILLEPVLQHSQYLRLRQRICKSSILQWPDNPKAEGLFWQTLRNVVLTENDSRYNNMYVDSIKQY
Experiment: HEK293-Blue-hTLR-8 cells assay
Conditions: HEK293-Blue-hTLR8 cells, R848 stimulation, 20 hrs, SEAP reporter; read-out: HEK/hTLR8 IC50
pIC50: −log10 of the molar value.
For each record, write down the corresponding pIC50.

The compound C[C@@H]1CN(c2ccc(C#N)c3ncccc23)C[C@@H]2c3ccc(N4C[C@@H](N)[C@H](F)C4)cc3CN12 showed pIC50 equal to 9.15

The compound CN[C@H]1CN(c2ccc3c(c2)CN2[C@H](C)CN(c4ccc(C#N)c5ncccc45)C[C@H]32)C[C@@H]1OC showed pIC50 equal to > 8.49

The compound C[C@@H]1CN(c2ccc(C#N)c3ncccc23)C[C@@H]2c3cccc(N[C@H]4CNC[C@H]4F)c3CN12 showed pIC50 equal to > 8.49

The compound N#Cc1ccc(N2CCN3Cc4cc(N5CCNCC5)ccc4C3C2)c2scnc12 (centres unmarked) showed pIC50 equal to > 8.49

The compound C[C@@H]1CN(c2ccc(C#N)c3ncccc23)C[C@@H]2c3ccc(NCC4(F)CNC4)cc3CN12 showed pIC50 equal to > 8.49

The compound CO[C@@H]1CN(c2ccc3c(c2)CN2[C@H](C)CN(c4ccc(C#N)n5ncc(F)c45)C[C@H]32)C[C@H]1N showed pIC50 equal to 8.70

The compound CO[C@H]1CNCC[C@H]1Nc1ccc2c(c1)CN1[C@H](C)CN(c3ccc(C#N)c4ncccc34)C[C@H]21 showed pIC50 equal to > 8.49

The compound C[C@@H]1CN(c2ccc(C#N)c3ncccc23)C[C@@H]2c3ccc(N[C@@H]4CNCCOC4)cc3CN12 [Example 56A] showed pIC50 equal to > 8.49

The compound C[C@@H]1CN(c2ccc(C#N)c3ncccc23)C[C@@H]2c3ccc(N4CCNC[C@@](C)(O)C4)cc3CN12 [Example 55B] showed pIC50 equal to > 8.49

The compound C[C@@H]1CN(c2ccc(C#N)c3ncccc23)C[C@@H]2c3cc(F)c(N4CC5CNCC(C4)O5)cc3CN12 showed pIC50 equal to 8.04

The compound C[C@@H]1CN(c2ccc(C#N)c3ncccc23)C[C@@H]2c3ccc(NC4CNC4)cc3CN12 showed pIC50 equal to > 8.49

The compound C[C@@H]1CN(c2ccc(C#N)n3nccc23)C[C@@H]2c3ccc(N4C[C@@H](N)[C@](C)(O)C4)cc3CN12 showed pIC50 equal to 8.05

The compound C[C@@H]1CN(c2ccc(C#N)c3ncccc23)C[C@@H]2c3ccc(N4CCC(C)(N)CC4)cc3CN12 showed pIC50 equal to > 9.52

The compound CO[C@H]1CN(c2ccc3c(c2)CN2[C@H](C)CN(c4ccc(C#N)n5nccc45)C[C@H]32)C[C@@H]1N showed pIC50 equal to 8.34

----------
Target: UniProt Q9NYK1
Sequence (Q9NYK1 27-1049): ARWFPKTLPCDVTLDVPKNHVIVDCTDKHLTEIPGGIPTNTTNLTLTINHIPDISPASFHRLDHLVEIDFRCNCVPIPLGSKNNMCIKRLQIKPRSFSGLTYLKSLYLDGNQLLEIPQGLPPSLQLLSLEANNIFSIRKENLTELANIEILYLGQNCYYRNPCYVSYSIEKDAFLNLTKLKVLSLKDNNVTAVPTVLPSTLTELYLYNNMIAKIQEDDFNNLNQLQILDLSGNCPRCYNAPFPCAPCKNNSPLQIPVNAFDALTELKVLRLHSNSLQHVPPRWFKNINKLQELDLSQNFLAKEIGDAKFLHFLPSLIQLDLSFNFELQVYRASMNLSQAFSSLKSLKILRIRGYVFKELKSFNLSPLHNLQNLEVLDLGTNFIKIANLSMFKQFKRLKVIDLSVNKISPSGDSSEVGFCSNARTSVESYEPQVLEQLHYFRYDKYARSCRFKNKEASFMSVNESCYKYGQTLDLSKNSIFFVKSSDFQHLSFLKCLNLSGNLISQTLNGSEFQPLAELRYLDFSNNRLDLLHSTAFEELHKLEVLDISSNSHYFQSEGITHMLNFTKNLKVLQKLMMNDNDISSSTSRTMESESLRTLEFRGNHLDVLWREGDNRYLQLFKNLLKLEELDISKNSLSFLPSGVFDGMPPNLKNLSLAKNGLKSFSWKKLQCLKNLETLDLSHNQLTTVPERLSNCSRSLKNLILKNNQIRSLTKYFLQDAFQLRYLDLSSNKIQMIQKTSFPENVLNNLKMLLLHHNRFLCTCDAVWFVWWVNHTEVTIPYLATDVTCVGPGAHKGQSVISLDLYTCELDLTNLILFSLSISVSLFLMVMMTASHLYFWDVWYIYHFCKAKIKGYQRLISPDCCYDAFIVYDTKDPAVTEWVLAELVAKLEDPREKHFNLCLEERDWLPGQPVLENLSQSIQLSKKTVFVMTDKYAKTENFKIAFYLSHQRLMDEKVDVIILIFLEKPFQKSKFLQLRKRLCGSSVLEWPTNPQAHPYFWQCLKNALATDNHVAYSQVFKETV
Experiment: HEK293-Blue-hTLR-7 cells assay
Conditions: HEK293-Blue-hTLR7 cells, R848 stimulation, 20 hrs, SEAP reporter; read-out: HEK/hTLR7 IC50
For each record, write down the corresponding IC50.
Hi! Could you send only the number? It should be in nM, unit omitted.

The molecule C[C@@H]1CN(c2ccc(C#N)c3ncccc23)C[C@@H]2c3ccc(N4CCNCC(C)(O)C4)cc3CN12 (stereo partly shown) showed IC50 equal to 6.5

The molecule CO[C@@H]1CNC[C@H]1Nc1cc2c(cc1C)[C@H]1CN(c3ccc(C#N)c4ncccc34)C[C@@H](C)N1C2 showed IC50 equal to 7.3

The molecule C[C@@H]1CN(c2ccc(C#N)c3ncccc23)C[C@@H]2c3ccc(N4C[C@@H](N)[C@H](F)C4)cc3CN12 showed IC50 equal to 5.8

The molecule C[C@@H]1CN(c2ccc(C#N)n3nccc23)C[C@@H]2c3ccc(N[C@H]4CNC[C@H]4F)cc3CN12 showed IC50 equal to 23.2
